tested-on: Mu-type opioid receptor (Homo sapiens, UniProt P35372)
Sequence (P35372 whole entry): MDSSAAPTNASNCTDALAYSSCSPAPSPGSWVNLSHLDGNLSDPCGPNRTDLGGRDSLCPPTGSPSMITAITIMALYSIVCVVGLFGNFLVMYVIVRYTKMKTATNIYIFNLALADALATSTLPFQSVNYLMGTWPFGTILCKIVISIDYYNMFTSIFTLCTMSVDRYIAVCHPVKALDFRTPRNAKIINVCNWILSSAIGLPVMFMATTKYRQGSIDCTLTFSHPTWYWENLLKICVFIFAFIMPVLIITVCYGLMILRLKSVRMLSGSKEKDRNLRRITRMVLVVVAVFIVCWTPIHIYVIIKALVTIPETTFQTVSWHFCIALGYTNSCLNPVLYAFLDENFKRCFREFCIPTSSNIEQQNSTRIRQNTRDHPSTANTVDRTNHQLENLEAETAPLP
pIC50: −log10 of the molar value.
experimental-endpoint: pIC50

- compound: "COCCOCCN1CC[C@]23CCCC[C@H]2[C@H]1Cc1cc2sc(N)nc2cc13 [US10766864, Example 97]"
  result: "< 6.00"
